# Tested on: human telomerase
# ASSAY_PROTOCOL: TRAP assay of telomerase activity in HME50-5 cell extracts preincubated with PNA or PS oligomer
# Assay type: biochemical
# CONDITION: HME50-5 cell extract, 25° C., 30 min preincubation; read-out: IC50 (nM) Cell Extract 25° C.
In this section we review reported IC50 values for a set of substances.
PROPERTY: IC50 (nM)

[
  {
    "SUBSTANCE": "PNA (III): complementary PNA, sequence TTAGGGTTAG (all peptide nucleic acid (PNA))",
    "READOUT_UNITS": "nM",
    "CENSORING_SIGN": "=",
    "RECORDED_MEASUREMENT": 200
  },
  {
    "SUBSTANCE": "PNA (VI): complementary PNA, sequence CAGTTAGGGTTAG (all peptide nucleic acid (PNA))",
    "READOUT_UNITS": "nM",
    "CENSORING_SIGN": "=",
    "RECORDED_MEASUREMENT": 10
  },
  {
    "SUBSTANCE": "PS (II): complementary phosphorothioate oligonucleotide CTCAGTTAGGGTTAG (all phosphorothioate, sugars by position and methylation of C not given here) [reference compound]",
    "READOUT_UNITS": "nM",
    "CENSORING_SIGN": "=",
    "RECORDED_MEASUREMENT": 100
  },
  {
    "SUBSTANCE": "PS (III): complementary phosphorothioate oligonucleotide TAGGGTTAGACAA (all phosphorothioate, sugars by position and methylation of C not given here) [reference compound]",
    "READOUT_UNITS": "nM",
    "CENSORING_SIGN": "=",
    "RECORDED_MEASUREMENT": 50
  },
  {
    "SUBSTANCE": "PNA (XII): complementary PNA, sequence TAGGGTTAGACAA (all peptide nucleic acid (PNA))",
    "READOUT_UNITS": "nM",
    "CENSORING_SIGN": "=",
    "RECORDED_MEASUREMENT": 0.9
  },
  {
    "SUBSTANCE": "PS (I): complementary phosphorothioate oligonucleotide 5'-GTTAGGGTTAG-3' (all phosphorothioate, sugars by position not given here) [reference compound]",
    "READOUT_UNITS": "nM",
    "CENSORING_SIGN": "=",
    "RECORDED_MEASUREMENT": 75
  },
  {
    "SUBSTANCE": "PNA (V): complementary PNA, sequence AGTTAGGGTTAG (all peptide nucleic acid (PNA))",
    "READOUT_UNITS": "nM",
    "CENSORING_SIGN": "=",
    "RECORDED_MEASUREMENT": 10
  },
  {
    "SUBSTANCE": "PS (IV): non-complementary phosphorothioate oligonucleotide AGGATCTTCACCTAGATCCT (all phosphorothioate, sugars by position and methylation of C not given here) [reference compound]",
    "READOUT_UNITS": "nM",
    "CENSORING_SIGN": "=",
    "RECORDED_MEASUREMENT": 100
  },
  {
    "SUBSTANCE": "PNA (XIV): non-complementary PNA, sequence AGGATCTTCACCTAGATCCT (all peptide nucleic acid (PNA)) [reference compound]",
    "READOUT_UNITS": "nM",
    "CENSORING_SIGN": ">",
    "RECORDED_MEASUREMENT": 33000
  }
]
